Cited source: patent US10556907B2

# target-or-test-system: human S1PR5 receptor (Homo sapiens, UniProt Q9H228)
# Construct: host or cells: CHO-K1
# Sequence (Q9H228 whole entry): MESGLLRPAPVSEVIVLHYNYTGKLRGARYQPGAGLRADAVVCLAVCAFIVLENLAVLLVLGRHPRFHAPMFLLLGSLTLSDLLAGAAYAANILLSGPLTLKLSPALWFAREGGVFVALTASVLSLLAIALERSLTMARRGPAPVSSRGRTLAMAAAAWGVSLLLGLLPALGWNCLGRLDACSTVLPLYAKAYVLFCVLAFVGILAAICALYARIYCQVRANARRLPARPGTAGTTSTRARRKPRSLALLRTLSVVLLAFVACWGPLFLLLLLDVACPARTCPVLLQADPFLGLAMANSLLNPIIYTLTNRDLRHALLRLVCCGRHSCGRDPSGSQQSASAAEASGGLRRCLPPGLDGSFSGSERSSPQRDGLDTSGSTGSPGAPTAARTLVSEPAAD
# assay-text: Method 1: intracellular Ca2+ release (FLIPR, Calcium 5) in recombinant CHO-K1 cells
# Type: cell-based
# conditions: agonist potency, determined with method 1 (symbols A-D); read-out: S1P5 EC50 range
measured-metric: EC50

molecule	EC50
CC(CC(=O)O)CN1CCc2nc(-c3ccc(OCc4cccc(Cl)c4)cc3)ncc2C1 (centres unmarked)	< 10 nM
O=C(O)C1(CN2CCc3nc(-c4ccc(OCc5ccc(Cl)cc5)cc4)ncc3C2)CC1	1000 to 10000 nM
O=C(O)CCN1Cc2cnc(-c3ccc(OCc4ccccc4)cc3)nc2C1	1000 to 10000 nM
Cc1cccc(C)c1COc1ccc(-c2ncc3c(n2)CCN(CC(=O)O)C3)cc1	100 to 1000 nM
CC(CN1CCc2nc(-c3ccc(OCc4ccccc4F)c(Cl)c3)ccc2C1)C(=O)O (centres unmarked)	100 to 1000 nM
O=C(O)CN1CCc2nc(Cc3c(F)cccc3F)ncc2C1	1000 to 10000 nM

The value of EC50 recorded for O=C(O)C1CC(N2CCc3nc(C#Cc4ccccc4)ccc3C2)C1 (centres unmarked) when tested on human S1PR5 receptor (Homo sapiens, UniProt Q9H228) reads 1000 to 10000 nM

Observed EC50, human S1PR5 receptor (Homo sapiens, UniProt Q9H228), O=C(O)CCN1CCc2nc(-c3ccc(OCc4ccc(OC(F)F)cc4)cc3)ncc2C1 : < 10 nM

====

# target-or-test-system: human S1PR5 receptor (Homo sapiens, UniProt Q9H228)
# Construct: host or cells: CHO-K1
# assay-text: Method 1: intracellular Ca2+ release (FLIPR, Calcium 5) in recombinant CHO-K1 cells
# Assay type: cell-based
# conditions: agonist potency, determined with method 1 (symbols A-D); read-out: S1P5 EC50 range
pEC50: −log10 of the molar value.
This listing pairs compounds with measured pEC50.

Worked examples follow.
compound	pEC50
CC(C(=O)O)N1CCc2nc(-c3ccc(OCc4cc(F)cc(F)c4)cc3)ncc2C1 (stereo not shown)	6.00 to 7.00
CC(C)(CC(=O)O)CN1CCc2nc(-c3ccc(OCc4ccc(Cl)c(Cl)c4)cc3)ncc2C1	6.00 to 7.00
O=C(O)C1CC(N2CCc3nc(C#Cc4cccc(Cl)c4)ncc3C2)C1 (stereo not shown)	5.00 to 6.00
CC(CN1CCc2nc(-c3ccc(OCc4ccccc4)cc3F)ccc2C1)C(=O)O (stereo not shown)	7.00 to 8.00
CCc1cccc(Cl)c1COc1ccc2c(n1)CCN(C1CC(C(=O)O)C1)C2 (stereo not shown)	> 8.00

Sure, the documented pEC50 for Cc1ccccc1C#Cc1ncc2c(n1)CCN(C1CC(C(=O)O)C1)C2 (stereo not shown) is 5.00 to 6.00

Please fill in: pEC50 reported for O=C(O)CCN1CCc2nc(-c3ccc(OCc4c(Cl)cccc4Cl)cc3)c(F)cc2C1 = > 8.00

Quick note, pEC50 for CC(CC(=O)O)CN1CCc2nc(-c3ccc(OCc4ccc(Cl)cc4)cc3)ncc2C1 (single isomer, unassigned; (-)) [Compound 213] landed at 7.00 to 8.00

====

# target-or-test-system: human S1PR5 receptor (Homo sapiens, UniProt Q9H228)
# Construct: host or cells: CHO-K1
# assay-text: Method 1: intracellular Ca2+ release (FLIPR, Calcium 5) in recombinant CHO-K1 cells
# Type: cell-based
# conditions: agonist potency, determined with method 1 (symbols A-D); read-out: S1P5 EC50 range
// values below are reported EC50

Examples with answers:
compound	target-or-test-system	EC50
O=C(O)CCN1CCc2nc(-c3ccc(OCc4ccccc4C(F)F)cc3)ncc2C1 [Compound 78]	human S1PR5 receptor (Homo sapiens, UniProt Q9H228)	< 10 nM
O=C(O)CCN1CCc2nc(-c3ccc(OCc4cccc(OC(F)F)c4)cc3)ncc2C1 [Compound 92]	human S1PR5 receptor (Homo sapiens, UniProt Q9H228)	10 to 100 nM
Cc1cc(-c2ccc3c(n2)CCN(CCC(=O)O)C3)ccc1OCc1ccc(C(F)(F)F)cc1 [Compound 167]	human S1PR5 receptor (Homo sapiens, UniProt Q9H228)	< 10 nM
CCc1cccc(Cl)c1COc1ccc(-c2nc3c(cc2F)CN(CCC(=O)O)CC3)cc1 [Compound 196]	human S1PR5 receptor (Homo sapiens, UniProt Q9H228)	10 to 100 nM
CC(CC(=O)O)N1CCc2nc(-c3ccc(OCc4cccc(Cl)c4)cc3)ncc2C1 (centres unmarked) [Compound 43]	human S1PR5 receptor (Homo sapiens, UniProt Q9H228)	100 to 1000 nM

get_value(item= CC(CN1CCc2nc(-c3ccc(OCc4ccccc4)cc3Cl)ccc2C1)C(=O)O (centres unmarked) [Compound 108] , readout=EC50) returns 100 to 1000 nM

For CC(CC(=O)O)CN1CCc2nc(-c3ccc(CCc4ccc(Cl)cc4)cc3)ncc2C1 (centres unmarked) [Compound 244] the compound record lists EC50 as < 10 nM

In plain terms, CC(CN1CCc2nc(-c3cccc(OCc4ccccc4)c3)ccc2C1)C(=O)O (centres unmarked) [Compound 107] has a documented EC50 of 1000 to 10000 nM

EC50 recorded for this compound, O=C(O)C1CC(N2CCc3nc(C#Cc4ccccc4Cl)ccc3C2)C1 (centres unmarked) [Compound 126] , is 1000 to 10000 nM

For this compound ( CC(CC(=O)O)CN1CCc2nc(-c3ccc(OCC4CCCCC4)cc3)ncc2C1 (centres unmarked) [Compound 336] ), measured EC50 is < 10 nM

====

# target-or-test-system: human S1PR5 receptor (Homo sapiens)
# Construct: host or cells: CHO-K1
# assay-text: Method 1: intracellular Ca2+ release (FLIPR, Calcium 5) in recombinant CHO-K1 cells
# Type: cell-based
# conditions: agonist potency, determined with method 1 (symbols A-D); read-out: S1P5 EC50 range
pEC50: −log10 of the molar value.
measured-metric: pEC50

Please review the following examples before continuing.
molecule	measured-metric	recorded-result
O=C(O)CCCN1CCc2nc(-c3ccc(OCc4ccccc4)cc3)ncc2C1 [Compound 37]	pEC50	7.00 to 8.00
CC(CC(=O)O)N1CCc2nc(-c3ccc(OCc4ccc(Cl)c(Cl)c4)cc3)ncc2C1 (centres unmarked) [Compound 45]	pEC50	7.00 to 8.00
CCc1cccc(Cl)c1COc1nc2c(cc1F)CN(C1CC(C(=O)O)C1)CC2 (centres unmarked) [Compound 183]	pEC50	6.00 to 7.00
O=C(O)CCN1CCc2nc(-c3ccc(OCc4ccc(Cl)c(Cl)c4)cc3)ncc2C1 [Compound 73]	pEC50	> 8.00
O=C(O)CCN1CCc2nc(-c3ccc(OCc4ccccc4)cc3)cnc2C1 [Compound 177]	pEC50	> 8.00

pEC50 reported for this molecule Cc1cc(-c2ncc3c(n2)CCN(CC(C)CC(=O)O)C3)ccc1OCc1ccc(F)cc1 (centres unmarked) [Compound 269] : 7.00 to 8.00

Form field pEC50, entry O=C(O)CCN1CCc2nc(-c3ccc(OCc4ccc(F)cc4)cc3)c(F)cc2C1 [Compound 190] : > 8.00

Recorded pEC50 (molecule Cc1cc(-c2ncc3c(n2)CCN(CC(C)CC(=O)O)C3)ccc1OCc1ccc(C(C)C)cc1 (centres unmarked) [Compound 310] ): 6.00 to 7.00

====

# target-or-test-system: human S1PR5 receptor (Homo sapiens, UniProt Q9H228)
# Construct: host or cells: CHO-K1
# assay-text: Method 1: intracellular Ca2+ release (FLIPR, Calcium 5) in recombinant CHO-K1 cells
# Assay type: cell-based
# conditions: agonist potency, determined with method 1 (symbols A-D); read-out: S1P5 EC50 range
measured-metric: EC50

Answered examples (4):
compound	target-or-test-system	EC50
CCc1ccc(COc2ccc(-c3ncc4c(n3)CCN(CC(C)CC(=O)O)C4)cc2C)cc1 (centres unmarked)	human S1PR5 receptor (Homo sapiens, UniProt Q9H228)	100 to 1000 nM
O=C(O)CCN1CCc2nc(-c3ccc(OCc4ccccc4OC(F)(F)F)cc3)ncc2C1	human S1PR5 receptor (Homo sapiens, UniProt Q9H228)	10 to 100 nM
Cc1cc(OC(F)(F)F)ccc1COc1ccc(-c2ccc3c(n2)CCN(CCC(=O)O)C3)cc1	human S1PR5 receptor (Homo sapiens, UniProt Q9H228)	< 10 nM
CC(C)(CC(=O)O)CN1CCc2nc(-c3ccc(OCc4cccc(Cl)c4)cc3)cnc2C1	human S1PR5 receptor (Homo sapiens, UniProt Q9H228)	1000 to 10000 nM

Form: compound = O=C(O)CCCN1CCc2nc(-c3ccc(OCc4ccc(Cl)cc4)cc3)ncc2C1 ; EC50 = < 10 nM

The recorded EC50 for CC(CN1CCc2nc(-c3ccc(OCc4cc(Cl)cc(Cl)c4)cc3)ncc2C1)C(=O)O (single isomer, unassigned) [Compound 19] is < 10 nM

The measured EC50 associated with CC(CN1CCc2nc(-c3ccc(OCc4ccccc4)c(Cl)c3)ccc2C1)C(=O)O (centres unmarked) reads 10 to 100 nM

The measured EC50 associated with CC(CC(=O)O)CN1CCc2nc(-c3ccc(OCc4ccc(Cl)cc4)cc3)ncc2C1 (centres unmarked) [Compound 259] reads 10 to 100 nM
